Test: Chemical stability in human blood plasma
Assay type: in vitro ADME
Conditions: pooled human blood plasma; 10 μm; 4 hours at 37° C.; substance amount remaining
READOUT_NAME: Stability in blood plasma, % (%)
Enter your answer as a number in %; do not include the unit.

### Prompt Reported Stability in blood plasma, % for C=CC(=O)Nc1cc(Nc2nccc(C(=O)c3ccc(OC)cc3OCCC)n2)c(OC)cc1N(C)CCN(C)C [EGFR_3365_102] : what is it?
### Response 82.7

### Prompt What does the data say about its Stability in blood plasma, %? Entry: C=CC(=O)Nc1cc(Nc2nccc(C(=O)c3ccc(N4CCC(N)CC4)cc3)n2)c(OC)cc1N(C)CCN(C)C [EGFR_3365_121]
### Response 98.3

### Prompt # Stability in blood plasma, % lookup, item C=CC(=O)Nc1cc(Nc2nccc(C(=O)c3ccc(N4CCCC4=O)cc3)n2)c(OC)cc1N(C)CCN(C)C [EGFR_3365_91]
### Response 95.4

### Prompt Dear colleague, I am looking for the recorded Stability in blood plasma, % of the following compound: C=CC(=O)Nc1cc(Nc2nccc(C(=O)c3ccc(N4CCCC4)cc3)n2)c(OC)cc1N(C)CCN(C)C [EGFR_3365_63]
### Response 100.0

### Prompt Which Stability in blood plasma, % is listed for C=CC(=O)Nc1cc(Nc2nccc(C(=O)c3ccc(-n4ccnc4)cc3)n2)c(OC)cc1N(C)CCN(C)C [EGFR_3365_86] ?
### Response 100.0

### Prompt Can you share its Stability in blood plasma, %? I mean this compound: C=CC(=O)Nc1cc(Nc2nccc(C(=O)c3ccc(N4CCC[C@@H](O)C4)cc3)n2)c(OC)cc1N(C)CCN(C)C [EGFR_3365_109]
### Response 98.2

### Prompt Query (compound): C=CC(=O)Nc1cc(Nc2nccc(C(=O)c3ccc(Br)cc3)n2)c(OC)cc1N(C)CCN(C)C [EGFR_3365_13] ; field requested: Stability in blood plasma, %
### Response 82.4

### Prompt Stability in blood plasma, % lookup needed for C=CC(=O)Nc1cc(Nc2nccc(C(=O)c3cccc(F)c3)n2)c(OC)cc1N(C)CCN(C)C [EGFR_3365_11] , thanks.
### Response 85.4

### Prompt Name the recorded Stability in blood plasma, % for C=CC(=O)Nc1cc(Nc2cc(C(=O)c3ccc(N4CCCC4)cc3)ccn2)c(OC)cc1N(C)CCN(C)C [EGFR_3365_56] .
### Response 83.2

### Prompt If you can, please state the reported Stability in blood plasma, % value of C=CC(=O)Nc1cc(Nc2cc(C(=O)c3ccc(N4CCN(C)CC4)cc3)ccn2)c(OC)cc1N(C)CCN(C)C [EGFR_3365_55] .
### Response 84.8

### Prompt Can you share its Stability in blood plasma, %? I mean this compound: C=CC(=O)Nc1cc(Nc2nccc(C(=O)c3ccc(N(CC)CC)cc3)n2)c(OC)cc1N(C)CCN(C)C [EGFR_3365_72]
### Response 94.6

### Prompt Give the measured Stability in blood plasma, % of C=CC(=O)Nc1cc(Nc2nccc(C(=O)c3ccc(OC)cc3)n2)c(OC)cc1N(C)CCN(C)C [EGFR_3365_28] .
### Response 86.2

### Prompt Name the reported Stability in blood plasma, % value associated with the compound C=CC(=O)Nc1cc(Nc2nccc(C(=O)c3ccc(N4CCC[C@H](O)C4)cc3)n2)c(OC)cc1N(C)CCN(C)C [EGFR_3365_108]
### Response 100.0

### Prompt Could you share which Stability in blood plasma, % value was measured for C=CC(=O)Nc1cc(Nc2nccc(C(=O)c3ccc(N4CCCCC4)cc3)n2)c(OC)cc1N(C)CCN(C)C [EGFR_3365_90] ?
### Response 98.1

### Prompt Using the record for C=CC(=O)Nc1cc(Nc2nccc(C(=O)c3ccc(N4CCC(N(C)C)CC4)cc3)n2)c(OC)cc1N(C)CCN(C)C [EGFR_3365_121a] , report its Stability in blood plasma, %.
### Response 99.0

### Prompt May I ask what Stability in blood plasma, % has been recorded for C=CC(=O)Nc1cc(Nc2nccc(C(=O)c3ccc(OC(C)C)cc3OC)n2)c(OC)cc1N(C)CCN(C)C [EGFR_3365_103] ?
### Response 96.2

### Prompt Reported Stability in blood plasma, % for C=CC(=O)Nc1cc(Nc2nccc(C(=O)c3ccc(N4CCN(C)CC4)cc3OC)n2)c(OC)cc1N(C)CCN(C)C [EGFR_3365_120] : what is it?
### Response 100.0

### Prompt I'd like to know its Stability in blood plasma, %. The compound in question is C=CC(=O)Nc1cc(Nc2nccc(C(=O)c3ccccc3OC)n2)c(OC)cc1N(C)CCN(C)C [EGFR_3365_33]
### Response 60.5

### Prompt # lookup: Stability in blood plasma, % of C=CC(=O)Nc1cc(Nc2nccc(C(=O)c3ccc(OC)cc3OC(C)C)n2)c(OC)cc1N(C)CCN(C)C [EGFR_3365_104]
### Response 77.2

### Prompt Item C=CC(=O)Nc1cc(Nc2nccc(C(=O)c3ccc(F)cc3)n2)c(OC)cc1N(C)CCN(C)C [EGFR_3365_10] has what recorded Stability in blood plasma, %?
### Response 94.2

### Prompt Value lookup for Stability in blood plasma, %; key = C=CC(=O)Nc1cc(Nc2nccc(C(=O)c3ccc(OCC)cc3)n2)c(OC)cc1N(C)CCN(C)C [EGFR_3365_29]
### Response 79.7

### Prompt For the compound C=CC(=O)Nc1cc(Nc2nccc(C(=O)c3ccccc3Br)n2)c(OC)cc1N(C)CCN(C)C [EGFR_3365_12] , what Stability in blood plasma, % is on record?
### Response 76.3

### Prompt Returns the measured Stability in blood plasma, % for the input compound. Input: C=CC(=O)Nc1cc(Nc2nccc(C(=O)c3ccc(N4CCC(OC)CC4)cc3)n2)c(OC)cc1N(C)CCN(C)C [EGFR_3365_98]
### Response 96.1

### Prompt Consider the compound C=CC(=O)Nc1cc(Nc2nccc(C(=O)c3ccc(N4CCCC4)cc3OC)n2)c(OC)cc1N(C)CCN(C)C [EGFR_3365_123] and give its measured Stability in blood plasma, %.
### Response 87.3

### Prompt Entry C=CC(=O)Nc1cc(Nc2nccc(C(=O)c3ccccc3C(F)(F)F)n2)c(OC)cc1N(C)CCN(C)C [EGFR_3365] : reported Stability in blood plasma, % = ?
### Response 90.3

### Prompt Requested field: Stability in blood plasma, %. Item: C=CC(=O)Nc1cc(Nc2nccc(C(=O)c3ccc(N4CC[C@@H](OC)C4)cc3)n2)c(OC)cc1N(C)CCN(C)C [EGFR_3365_115]
### Response 94.6

### Prompt Field request: Stability in blood plasma, % | item: C=CC(=O)Nc1cc(Nc2cc(C(=O)c3ccccc3OC)ccn2)c(OC)cc1N(C)CCN(C)C [EGFR_3365_88]
### Response 68.2

### Prompt What measured Stability in blood plasma, % goes with C=CC(=O)Nc1cc(Nc2nccc(C(=O)c3ccc(OCc4ccccc4)cc3)n2)c(OC)cc1N(C)CCN(C)C [EGFR_3365_16] ?
### Response 83.5
